Below, each entry is listed alongside its reported EC50.
Target: T1, human GITR (amino acids M1-V241, NCBI Accession #NP_004186.1) expressed on cells (human, UniProt Q9Y5U5 26-241)
T1 construct: also called hGITR; hGITR/HEK293-D9
T1 sequence: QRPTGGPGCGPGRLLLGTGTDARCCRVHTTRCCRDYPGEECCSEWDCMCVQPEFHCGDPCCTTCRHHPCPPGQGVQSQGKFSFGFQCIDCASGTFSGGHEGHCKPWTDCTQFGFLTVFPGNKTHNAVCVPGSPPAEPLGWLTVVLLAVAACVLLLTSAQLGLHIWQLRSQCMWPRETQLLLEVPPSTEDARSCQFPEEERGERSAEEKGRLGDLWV
Assay: ECL cell binding, hGITR/HEK293-D9
Dear colleague, please return just the value in nM, with no unit written.

| binder | EC50 [nM] |
| --- | --- |
| H4H14469P (antibody, human IgG4, V domains shown, human IgG4 (H4H)) VH: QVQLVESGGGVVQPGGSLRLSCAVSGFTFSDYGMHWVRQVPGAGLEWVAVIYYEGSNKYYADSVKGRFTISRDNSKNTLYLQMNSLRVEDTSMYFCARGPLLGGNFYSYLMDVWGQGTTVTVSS VL: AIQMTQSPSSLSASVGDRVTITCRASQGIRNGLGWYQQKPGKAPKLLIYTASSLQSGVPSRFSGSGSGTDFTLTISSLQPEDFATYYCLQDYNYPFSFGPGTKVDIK | 0.23 |
| H4H14508P (antibody, human IgG4, V domains shown, human IgG4 (H4H)) VH: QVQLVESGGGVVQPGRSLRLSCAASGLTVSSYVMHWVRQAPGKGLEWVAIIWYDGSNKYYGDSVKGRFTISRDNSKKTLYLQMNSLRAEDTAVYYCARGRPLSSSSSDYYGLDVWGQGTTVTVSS VL: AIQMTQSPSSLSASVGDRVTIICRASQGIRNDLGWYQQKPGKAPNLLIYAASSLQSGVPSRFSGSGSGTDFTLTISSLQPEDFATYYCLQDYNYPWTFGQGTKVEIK | 0.45 |

Now let's try a different one.
Request: Consider the binder H1H14493P (antibody, human IgG1, V domains shown, human IgG1 (H1H)) VH: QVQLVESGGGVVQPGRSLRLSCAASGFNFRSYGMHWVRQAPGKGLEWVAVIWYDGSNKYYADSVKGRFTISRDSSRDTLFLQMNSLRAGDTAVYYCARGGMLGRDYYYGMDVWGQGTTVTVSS VL: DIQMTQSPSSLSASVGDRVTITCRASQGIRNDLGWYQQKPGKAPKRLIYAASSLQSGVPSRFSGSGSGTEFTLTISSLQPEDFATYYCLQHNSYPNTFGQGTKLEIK and give its measured EC50.
Result: 0.3
